Test system: JAK-STAT signalling in HeLa cells
test.summary: JAK-STAT signalling assay (OSM-triggered pSTAT1(2)-luciferase reporter in HeLa cells)
Format: cell-based
applied.conditions: Homo sapiens; HeLa cells, OSM-triggered pSTAT1(2)-luciferase reporter; read-out: STAT signalling EC50
Description: HeLa cells were maintained in Dulbecco's Modified Eagle's Medium (DMEM) containing 10% heat inactivated fetal calf serum, 100 U/mL penicillin and 100 μg/mL streptomycin. HeLa cells were used at 70% confluence for transfection. […] 40 μL of cell lysate was used to read β-galactosidase activity by adding 180 μL βGal solution (30 μl ONPG 4 mg/mL+150 μL β-Galactosidase buffer (0.06 M Na2HPO4, 0.04 M NaH2PO4, 1 mM MgCl2)) for 20 min. […]
Each entry below lists one item and its recorded EC50 value.

Some molecules with recorded EC50:
{"molecule": "O=C(Nc1nc2cccc(-c3ccc(OCc4ncon4)cc3)n2n1)C1CC1", "EC50": "101 to 500 nM"}
{"molecule": "Cc1cc(COc2ccc(-c3cccc4nc(NC(=O)C5CC5)nn34)cc2)nn1C", "EC50": "> 1000 nM"}
{"molecule": "O=C(Nc1nc2cccc(-c3ccc(CNC4CCS(=O)(=O)C4)cc3)n2n1)C1CC1 (centres unmarked)", "EC50": "> 1000 nM"}

Q: May I ask what EC50 has been recorded for `O=C(NCc1cccc(F)c1)c1ccc(-c2cccc3nc(NC(=O)C4CC4)nn23)cc1` ?
Result: 101 to 500 nM

Q: May I ask what EC50 has been recorded for `CC(=O)N(Cc1ccccn1)c1ccc(-c2cccc3nc(NC(=O)C4CC4)nn23)cc1` ?
Result: > 1000 nM

Q: May I ask what EC50 has been recorded for `COC1CCN(Cc2ccc(-c3cccc4nc(NC(=O)C5CC5)nn34)cc2)CC1` ?
Result: > 1000 nM

Q: May I ask what EC50 has been recorded for `O=C(CCc1ccccc1)Nc1ccc(-c2cccc3nc(NC(=O)C4CC4)nn23)cc1` ?
Result: 501 to 1000 nM

Q: May I ask what EC50 has been recorded for `CCCCN(CCCN1CCOCC1)C(=O)c1ccc(-c2cccc3nc(NC(=O)C4CC4)nn23)cc1` ?
Result: > 1000 nM

###

target.of.assay: Recombinant human JAK3 catalytic domain (Homo sapiens (Human))
test.summary: JAK3 inhibition assay
Assay type: biochemical
applied.conditions: semi-quantitative score
pIC50: −log10 of the molar value.
measurement.label: pIC50

Some compounds with recorded pIC50:
{"compound": "O=C(Nc1nc2cccc(-c3ccc(C(=O)N4CCC(C(=O)c5ccccc5)CC4)cc3)n2n1)C1CC1 [Compound 74]", "target.of.assay": "Recombinant human JAK3 catalytic domain (Homo sapiens (Human))", "test.value": "< 6.00"}
{"compound": "O=C(Nc1nc2cccc(-c3ccc(CC(=O)N4CCC(C(F)(F)F)CC4)cc3)n2n1)C1CC1 [Compound 319]", "target.of.assay": "Recombinant human JAK3 catalytic domain (Homo sapiens (Human))", "test.value": "6.30 to 7.00"}
{"compound": "O=C(Nc1nc2cccc(-c3ccc(OCc4ccc(-n5cccn5)cc4)cc3)n2n1)C1CC1 [Compound 125]", "target.of.assay": "Recombinant human JAK3 catalytic domain (Homo sapiens (Human))", "test.value": "> 7.00"}
{"compound": "NC(=O)c1ccc(COc2ccc(-c3cccc4nc(NC(=O)C5CC5)nn34)cc2)cn1 [Compound 192]", "target.of.assay": "Recombinant human JAK3 catalytic domain (Homo sapiens (Human))", "test.value": "6.30 to 7.00"}
{"compound": "CC(=O)Nc1ccc(COc2ccc(-c3cccc4nc(NC(=O)C5CC5)nn34)cc2)cc1 [Compound 92]", "target.of.assay": "Recombinant human JAK3 catalytic domain (Homo sapiens (Human))", "test.value": "6.00 to 6.30"}

Q: May I ask what pIC50 has been recorded for CC1CN(C(=O)c2ccc(-c3cccc4nc(NC(=O)C5CC5)nn34)cc2)CC(C)O1 (stereo not drawn) [Compound 215] ?
Result: > 7.00

Q: May I ask what pIC50 has been recorded for O=C(Nc1nc2cccc(-c3ccc(S(=O)(=O)NC4CC4)cc3)n2n1)C1CC1 [Compound 13] ?
Result: < 6.00

Q: May I ask what pIC50 has been recorded for O=C(NCc1cccc(F)c1)c1ccc(-c2cccc3nc(NC(=O)C4CC4)nn23)cc1 [Compound 29] ?
Result: < 6.00

###

Each entry below lists one item and its recorded IC50 value.
target.of.assay: Recombinant human JAK3 catalytic domain (Homo sapiens (Human), UniProt P52333)
Sequence (P52333 781-1124): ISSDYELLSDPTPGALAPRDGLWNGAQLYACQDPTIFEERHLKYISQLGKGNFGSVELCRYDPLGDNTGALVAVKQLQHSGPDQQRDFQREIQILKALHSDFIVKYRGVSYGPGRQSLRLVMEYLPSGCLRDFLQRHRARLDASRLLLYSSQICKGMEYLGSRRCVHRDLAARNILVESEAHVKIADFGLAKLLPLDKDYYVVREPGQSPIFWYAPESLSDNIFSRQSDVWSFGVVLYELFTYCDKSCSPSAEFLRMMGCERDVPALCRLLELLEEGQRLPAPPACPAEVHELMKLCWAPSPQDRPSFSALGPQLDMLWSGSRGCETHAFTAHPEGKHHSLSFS
test.summary: JAK3 inhibition assay
Assay type: biochemical
applied.conditions: semi-quantitative score

Some compounds with recorded IC50:
{"compound": "O=C(Nc1nc2cccc(-c3ccc(NS(=O)(=O)CCc4ccccc4)cc3)n2n1)C1CC1", "test.value": "101 to 500 nM"}
{"compound": "O=C(Nc1nc2cccc(-c3ccc(NCc4ccccc4)cc3)n2n1)C1CC1", "test.value": "501 to 1000 nM"}
{"compound": "O=C(Nc1nc2cccc(-c3ccc(C(=O)N4CCCCC4)cc3)n2n1)C1CC1", "test.value": "> 1000 nM"}
{"compound": "Cc1cc(COc2ccc(-c3cccc4nc(NC(=O)C5CC5)nn34)cc2)nn1C", "test.value": "101 to 500 nM"}
{"compound": "O=C(Nc1nc2cccc(-c3ccc(C(=O)N4CCCN(Cc5ccccc5)CC4)cc3)n2n1)C1CC1", "test.value": "> 1000 nM"}

Q: Form: Entry = `O=C(Nc1nc2cccc(-c3ccc(OCC4CCC4)cc3)n2n1)C1CC1` | System = Recombinant human JAK3 catalytic domain (Homo sapiens (Human), UniProt P52333) | IC50 = ____
Result: > 1000 nM

Q: Form: Entry = `O=C(COc1ccc(-c2cccc3nc(NC(=O)C4CC4)nn23)cc1)Nc1cccc(F)c1` | System = Recombinant human JAK3 catalytic domain (Homo sapiens (Human), UniProt P52333) | IC50 = ____
Result: 501 to 1000 nM

Q: Form: Entry = `O=C(Nc1nc2cccc(-c3ccc(NS(=O)(=O)c4ccc(F)cc4)cc3)n2n1)C1CC1` | System = Recombinant human JAK3 catalytic domain (Homo sapiens (Human), UniProt P52333) | IC50 = ____
Result: > 1000 nM

Q: Form: Entry = `O=C(Nc1nc2cccc(-c3ccc(CN4CCC(C(F)(F)F)CC4)cc3)n2n1)C1CC1` | System = Recombinant human JAK3 catalytic domain (Homo sapiens (Human), UniProt P52333) | IC50 = ____
Result: 501 to 1000 nM

Q: Form: Entry = `O=C(Nc1nc2cccc(-c3ccc(C(=O)N4CCC(F)(F)C4)cc3)n2n1)C1CC1` | System = Recombinant human JAK3 catalytic domain (Homo sapiens (Human), UniProt P52333) | IC50 = ____
Result: 101 to 500 nM

Q: Form: Entry = `O=C(Nc1nc2cccc(-c3ccc(NS(=O)(=O)CCc4cccc(F)c4)cc3)n2n1)C1CC1` | System = Recombinant human JAK3 catalytic domain (Homo sapiens (Human), UniProt P52333) | IC50 = ____
Result: > 1000 nM

Q: Form: Entry = `O=C(Nc1nc2cccc(-c3ccc(OCc4ccccc4)cc3)n2n1)C1CC1` | System = Recombinant human JAK3 catalytic domain (Homo sapiens (Human), UniProt P52333) | IC50 = ____
Result: < 100 nM

###

target.of.assay: Recombinant human JAK1 catalytic domain (Homo sapiens (Human), UniProt P23458)
Sequence (P23458 850-1154): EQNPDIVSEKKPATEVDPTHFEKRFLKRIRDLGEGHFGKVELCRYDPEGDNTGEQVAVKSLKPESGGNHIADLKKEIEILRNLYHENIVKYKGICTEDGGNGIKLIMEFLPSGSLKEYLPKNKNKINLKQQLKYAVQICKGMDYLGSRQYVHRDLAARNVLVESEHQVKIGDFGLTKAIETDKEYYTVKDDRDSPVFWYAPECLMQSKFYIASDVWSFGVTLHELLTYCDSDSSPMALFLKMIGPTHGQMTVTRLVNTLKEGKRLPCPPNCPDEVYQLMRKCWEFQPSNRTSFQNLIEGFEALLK
test.summary: JAK1 inhibition assay
Format: biochemical
applied.conditions: semi-quantitative score
measurement.label: IC50

Some compounds with recorded IC50:
{"compound": "O=C(Nc1nc2cccc(-c3ccc(CNc4cccnn4)cc3)n2n1)C1CC1 [Compound 222]", "IC50": "< 100 nM"}
{"compound": "O=C(Nc1nc2cccc(-c3ccc(NCc4ccccn4)nc3)n2n1)C1CC1 [Compound 171]", "IC50": "101 to 500 nM"}
{"compound": "N#Cc1ccc(-c2ccc(-c3cccc4nc(NC(=O)C5CC5)nn34)cc2)cn1 [Compound 239]", "IC50": "< 100 nM"}

Field: next compound
Q: Form: Entry = O=C(Nc1nc2cccc(-c3ccc(CN4CCCC(F)C4)cc3)n2n1)C1CC1 (stereo not shown) [Compound 280] | System = Recombinant human JAK1 catalytic domain (Homo sapiens (Human), UniProt P23458) | IC50 = ____
Result: < 100 nM

###

Each entry below lists one item and its recorded pIC50 value.
target.of.assay: Recombinant human TYK2 catalytic domain (Homo sapiens (Human))
Sequence (P29597 871-1187): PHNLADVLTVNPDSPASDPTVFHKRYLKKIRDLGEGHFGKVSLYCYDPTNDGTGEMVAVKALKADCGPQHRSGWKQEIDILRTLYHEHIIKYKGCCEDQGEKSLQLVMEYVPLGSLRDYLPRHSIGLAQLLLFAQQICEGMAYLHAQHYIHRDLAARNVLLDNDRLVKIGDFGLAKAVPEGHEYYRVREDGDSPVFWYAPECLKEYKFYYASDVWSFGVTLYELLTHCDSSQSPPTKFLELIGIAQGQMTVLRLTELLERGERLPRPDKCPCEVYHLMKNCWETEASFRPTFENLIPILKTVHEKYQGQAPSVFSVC
test.summary: TYK2 inhibition assay
Format: biochemical
applied.conditions: semi-quantitative score
pIC50: −log10 of the molar value.

Some compounds with recorded pIC50:
{"smiles": "O=C(Nc1nc2cccc(-c3ccc(-c4cccnc4)cc3)n2n1)C1CC1", "test.value": "6.00 to 6.30"}
{"smiles": "O=C(Nc1nc2cccc(-c3ccc(CNc4ccon4)cc3)n2n1)C1CC1", "test.value": "> 7.00"}
{"smiles": "Cc1n[nH]c(C)c1CCOc1ccc(-c2cccc3nc(NC(=O)C4CC4)nn23)cc1", "test.value": "6.00 to 6.30"}
{"smiles": "CC(=O)Nc1nc2cccc(-c3ccc(OCc4ccccc4)cc3)n2n1", "test.value": "< 6.00"}
{"smiles": "O=C(Nc1nc2cccc(-c3ccc(OCC4CCCCC4)cc3)n2n1)C1CC1", "test.value": "< 6.00"}

Q: May I ask what pIC50 has been recorded for `O=C(N[C@H]1CCN(Cc2ccccc2)C1)c1ccc(-c2cccc3nc(NC(=O)C4CC4)nn23)cc1` ?
Result: < 6.00

Q: May I ask what pIC50 has been recorded for `O=C(Nc1nc2cccc(-c3ccc(Oc4ccccc4)cc3)n2n1)C1CC1` ?
Result: < 6.00

Q: May I ask what pIC50 has been recorded for `O=C(Nc1nc2cccc(-c3ccc(OCc4ccccc4)c(F)c3)n2n1)C1CC1` ?
Result: < 6.00

Q: May I ask what pIC50 has been recorded for `O=C(NCCc1ccccc1)c1ccc(-c2cccc3nc(NC(=O)C4CC4)nn23)c(F)c1` ?
Result: < 6.00

Q: May I ask what pIC50 has been recorded for `Cc1cc(COc2ccc(-c3cccc4nc(NC(=O)C5CC5)nn34)cc2)nn1C` ?
Result: < 6.00

Q: May I ask what pIC50 has been recorded for `O=C(Nc1nc2cccc(-c3ccc(NS(=O)(=O)c4ccccc4F)cc3)n2n1)C1CC1` ?
Result: 6.30 to 7.00

Q: May I ask what pIC50 has been recorded for `O=C(CCc1ccccc1)Nc1ccc(-c2cccc3nc(NC(=O)C4CC4)nn23)cc1` ?
Result: < 6.00

Q: May I ask what pIC50 has been recorded for `N#Cc1ccc(COc2ccc(-c3cccc4nc(NC(=O)C5CC5)nn34)cc2)cn1` ?
Result: > 7.00

Q: May I ask what pIC50 has been recorded for `Cn1ccc(COc2ccc(-c3cccc4nc(NC(=O)C5CC5)nn34)cc2)n1` ?
Result: < 6.00

Q: May I ask what pIC50 has been recorded for `O=C(Nc1nc2cccc(-c3ccc(CN4CCOCC4)cc3)n2n1)C1CC1` ?
Result: < 6.00

Q: May I ask what pIC50 has been recorded for `O=C(Nc1nc2cccc(-c3ccc(C(=O)N4CCc5ccccc5C4)cc3)n2n1)C1CC1` ?
Result: < 6.00

Q: May I ask what pIC50 has been recorded for `O=C(Nc1nc2cccc(-c3ccc(OC4CCCC4)cc3)n2n1)C1CC1` ?
Result: 6.00 to 6.30

Q: May I ask what pIC50 has been recorded for `O=C(Nc1nc2cccc(-c3ccc(C(=O)N4CCC(F)(F)C4)cc3)n2n1)C1CC1` ?
Result: > 7.00

Q: May I ask what pIC50 has been recorded for `O=C(Nc1nc2cccc(-c3ccc4c(ccn4Cc4ccccc4)c3)n2n1)C1CC1` ?
Result: < 6.00
